This collection of values is drawn from patent US6825209B2.

target: CB1 receptor (Rattus norvegicus); construct: Whole rat brains or dissected regions from live CD rats; tissue Charles River or Pel-Freez Biologicals; host or cells: whole rat brain (CD rats), P2 membrane; test: Radioligand displacement in whole rat brain (CB1) membrane preparations; type: binding; details: Ki, displacement of 3H-SR141716A, whole rat brain; 3H-SR141716A; Table 4, parallel synthesis analogs, n = 1, concentration assumes 100% yield
Sequence (P20272 whole entry): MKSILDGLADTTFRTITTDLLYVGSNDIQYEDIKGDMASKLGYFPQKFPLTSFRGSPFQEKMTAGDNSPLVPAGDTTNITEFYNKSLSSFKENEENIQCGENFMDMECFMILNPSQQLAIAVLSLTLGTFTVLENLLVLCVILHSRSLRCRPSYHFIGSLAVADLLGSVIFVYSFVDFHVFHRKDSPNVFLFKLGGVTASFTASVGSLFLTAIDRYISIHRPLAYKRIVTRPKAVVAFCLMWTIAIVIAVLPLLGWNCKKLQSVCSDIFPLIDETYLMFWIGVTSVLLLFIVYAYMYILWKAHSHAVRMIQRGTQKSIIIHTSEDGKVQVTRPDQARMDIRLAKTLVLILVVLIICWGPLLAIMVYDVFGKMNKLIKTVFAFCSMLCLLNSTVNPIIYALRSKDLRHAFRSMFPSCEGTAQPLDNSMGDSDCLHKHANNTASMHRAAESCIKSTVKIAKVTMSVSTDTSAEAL
pKi: −log10 of the molar value.
property_label: pKi

>>> number("CCCCCC(CC)NC(=O)c1nn(-c2ccc(Cl)cc2Cl)c(-c2ccc(Cl)cc2)c1C (stereo not shown) [AKS-10262-5]")
8.07
>>> number("CCCCCCCCCCCCCNC(=O)c1nn(-c2ccc(Cl)cc2Cl)c(-c2ccc(Cl)cc2)c1C [BT-6]")
6.76
>>> number("CCCCCC(C)NC(=O)c1nn(-c2ccc(Cl)cc2Cl)c(-c2ccc(Cl)cc2)c1C (stereo not shown) [AKS-10262-1]")
8.59
>>> number("Cc1c(C(=O)NCCC(c2ccccc2)c2ccccc2)nn(-c2ccc(Cl)cc2Cl)c1-c1ccc(Cl)cc1 [AKS-10262-9]")
8.26

----------
molecular target: cannabinoid receptors (Mus musculus, UniProt P47746); construct: mediated by cannabinoid receptors located on prejunctional neurones; from tissue; host or cells: mouse isolated vas deferens; experiment: Mouse vas deferens tissue assay (WIN55212-2 as agonist); conditions: shift of the WIN55212-2 dose response curve; isolated mouse vas deferens
Sequence (P47746 whole entry): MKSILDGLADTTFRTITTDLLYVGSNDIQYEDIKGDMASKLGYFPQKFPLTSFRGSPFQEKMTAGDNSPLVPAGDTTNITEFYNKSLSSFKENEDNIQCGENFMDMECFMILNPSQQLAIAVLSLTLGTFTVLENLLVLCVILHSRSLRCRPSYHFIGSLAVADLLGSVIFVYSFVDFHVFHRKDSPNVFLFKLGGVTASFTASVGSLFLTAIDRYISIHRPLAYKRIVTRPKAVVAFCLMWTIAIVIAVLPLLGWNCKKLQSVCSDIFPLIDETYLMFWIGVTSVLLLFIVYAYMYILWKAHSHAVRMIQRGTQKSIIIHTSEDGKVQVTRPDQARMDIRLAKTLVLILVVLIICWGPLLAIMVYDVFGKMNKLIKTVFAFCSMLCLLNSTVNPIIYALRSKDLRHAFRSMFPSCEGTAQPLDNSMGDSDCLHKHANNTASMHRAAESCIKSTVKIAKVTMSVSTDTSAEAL
property_label: Dextral Shift

>>> number("Cc1c(C(=O)NN2CCOCC2)nn(-c2ccc(Cl)cc2Cl)c1-c1ccc(Cl)cc1 [MF9725-33D]")
26.3
>>> number("Cc1c(C(=O)NC2CCCCC2)nn(-c2ccc(Cl)cc2Cl)c1-c1ccc(Cl)cc1")
26.7

----------
molecular target: cannabinoid receptors (Mus musculus, UniProt P47746); construct: mediated by cannabinoid receptors located on prejunctional neurones; from tissue; host or cells: mouse isolated vas deferens; test: Mouse vas deferens tissue assay (WIN55212-2 as agonist); settings: isolated mouse vas deferens; in the absence of WIN55212-2
property_label: % Inverse Effect (%)

>>> number("CCCCCCNC(=O)c1nn(-c2ccc(Cl)cc2Cl)c(-c2ccc(Cl)cc2)c1C [MF9725-132-25]")
30.1
>>> number("CCCCNC(=O)c1nn(-c2ccc(Cl)cc2Cl)c(-c2ccc(Cl)cc2)c1C [MF9725-64-17]")
28.2
>>> number("Cc1c(C(=O)NC2CCCCC2)nn(-c2ccc(Cl)cc2Cl)c1-c1ccc(Cl)cc1 [MF9725-66-11]")
55.5
>>> number("Cc1c(C(=O)NN2CCOCC2)nn(-c2ccc(Cl)cc2Cl)c1-c1ccc(Cl)cc1 [MF9725-33D]")
82.5

----------
molecular target: CB1 receptor (Rattus norvegicus); construct: Whole rat brains or dissected regions from live CD rats; tissue Charles River or Pel-Freez Biologicals; host or cells: whole rat brain (CD rats), P2 membrane; experiment: Radioligand displacement in whole rat brain (CB1) membrane preparations; format: binding; details: whole rat brain; 3H-CP55940; Table 4, parallel synthesis analogs, n = 1
property_label: Max. Disp. %, 3H-CP55940

>>> result("CCCCCCCCCC(C)NC(=O)c1nn(-c2ccc(Cl)cc2Cl)c(-c2ccc(Cl)cc2)c1C (stereo not drawn)")
"83.7%"
>>> result("COCC(C)NC(=O)c1nn(-c2ccc(Cl)cc2Cl)c(-c2ccc(Cl)cc2)c1C (stereo not drawn)")
"96.2%"
>>> result("CCCCCCC(C)NC(=O)c1nn(-c2ccc(Cl)cc2Cl)c(-c2ccc(Cl)cc2)c1C (stereo not drawn)")
"83.9%"
